# Experiment summary: Solubility in water at 25 degC
# Format: physicochemical
# Recorded conditions: water; read-out: solubility
Measured endpoint: solubility
Just so you know, I need the unit written after the number.

Lookup: Fill blank: measured solubility of the compound C1COCCN1.C1COCCN1.O=C1CCc2ccc(OP(=O)(O)O)c(c2)Oc2ccc(cc2)/C=C\CO1 is ____.
Found: 5000 µg/mL

====

# EC50 annotations
# Tested on: P388
# Experiment summary: Cytotoxicity against mouse P388 cells
# Format: functional
# Recorded conditions: read-out: ED50 (the source's name)
Field: numeric (µg/mL). Do not append units.

Recorded results for 8 compounds are shown here.
O=C1CCc2ccc(OP(=O)([O-])[O-])c(c2)Oc2ccc(cc2)/C=C\CO1.[Na+].[Na+] ... 23.9
COc1ccc(/C=C\c2cc(OC)c(OC)c(OC)c2)cc1O ... 0.0034
O=C1CCc2ccc(O)c(c2)Oc2ccc(cc2)[C@H]2O[C@@H]2CO1 ... 3.3
COc1ccc(C[C@@H](O)c2cc(OC)c(OC)c(OC)c2)cc1O ... 0.011
C1COCCN1.C1COCCN1.O=C1CCc2ccc(OP(=O)(O)O)c(c2)Oc2ccc(cc2)/C=C\CO1 ... 86.2
COc1ccc(CCC(=O)OC/C=C\c2ccc(F)c([N+](=O)[O-])c2)cc1O ... 27
O=C1CCc2ccc(O)c(c2)Oc2ccc(cc2)/C=C\CO1 ... 5.2
O=C1CCc2ccc(OP(=O)([O-])[O-])c(c2)Oc2ccc(cc2)/C=C\CO1.[Li+].[Li+] ... 27.1

Proceed to the following item.
Lookup: Fill blank: measured EC50 of the compound COc1ccc2cc1Oc1ccc(cc1)/C=C\COC(=O)CC2 is ____.
Found: 8.1

====

# Tested on: P388
# Experiment summary: Cytotoxicity against mouse P388 cells
# Assay type: functional
# Recorded conditions: read-out: ED50 (the source's name)
Measured endpoint: EC50

O=C1CCc2ccc(O)c(c2)Oc2ccc(cc2)CCCO1 [CORNICULATOLIDE A] ... > 100 mg/L
O=C1CCc2ccc(OCc3ccccc3)c(c2)Oc2ccc(cc2)CCCO1 ... > 100 mg/L
COc1ccc(CCC(=O)OCCCc2ccc(Br)cc2)cc1O ... > 100 mg/L

Lookup: # query: EC50 | item O=C(CCc1ccc(OCc2ccccc2)c(O)c1)OC/C=C\c1ccc(F)c([N+](=O)[O-])c1 | system: P388
Found: > 100 mg/L

Lookup: # query: EC50 | item O=C(CCc1ccc(OCc2ccccc2)c(O)c1)OC/C=C\c1ccc(Br)cc1 | system: P388
Found: > 100 mg/L

Lookup: # query: EC50 | item O=C1CCc2ccc(OCc3ccccc3)c(c2)Oc2ccc(cc2)/C=C\CO1 | system: P388
Found: > 100 mg/L

Lookup: # query: EC50 | item COc1ccc(CCC(=O)OC/C=C\c2ccc(Br)cc2)cc1O | system: P388
Found: > 100 mg/L
